# System: HSSY-II complex spheroid growth, percent test/control
# TEST SUMMARY: Anticancer human tumor HSSY-II cell line growth inhibition [Asc];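 note: spheroids exposed to drug for 7 days before reading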
# CONDITION DETAILS: second compound 0.316 µM; first compound 0.000316 µM; hits give low values
In this section we review reported viability, T/C values for a set of compounds.
PARAMETER: viability, T/C (%)

INSERT INTO assay_data (compound, number) VALUES
  ('Cn1ncnc1[C@H]1c2n[nH]c(=O)c3cc(F)cc(c23)N[C@@H]1c1ccc(F)cc1 + Cc1c(S(C)(=O)=O)c(-c2cc(F)cc(N3CCN(c4ccc(NS(=O)(=O)c5ccc(NC(CCN6CCC(C(=O)OCCCP(=O)(O)O)CC6)CSc6ccccc6)c(S(=O)(=O)C(F)(F)F)c5)cc4)CC3)c2)c(-c2ccc(Cl)cc2)n1C(C)C', 97.6),
  ('NC1CCC(NC2CC2c2ccccc2)CC1 (centres undefined) + Cc1c(S(C)(=O)=O)c(-c2cc(F)cc(N3CCN(c4ccc(NS(=O)(=O)c5ccc(NC(CCN6CCC(C(=O)OCCCP(=O)(O)O)CC6)CSc6ccccc6)c(S(=O)(=O)C(F)(F)F)c5)cc4)CC3)c2)c(-c2ccc(Cl)cc2)n1C(C)C', 77),
  ('Cn1ncnc1[C@H]1c2n[nH]c(=O)c3cc(F)cc(c23)N[C@@H]1c1ccc(F)cc1 + CNC(C)C(=O)NC1CN(S(=O)(=O)c2cccc(S(=O)(=O)N3CCC4CCC(C(=O)NC(c5ccccc5)c5ccccc5)N4C(=O)C(NC(=O)C(C)NC)C3)c2)CCC2CCC(C(=O)NC(c3ccccc3)c3ccccc3)N2C1=O', 93.8),
  ('NC1CCC(NC2CC2c2ccccc2)CC1 (centres undefined) + CNC(C)C(=O)NC1CN(S(=O)(=O)c2cccc(S(=O)(=O)N3CCC4CCC(C(=O)NC(c5ccccc5)c5ccccc5)N4C(=O)C(NC(=O)C(C)NC)C3)c2)CCC2CCC(C(=O)NC(c3ccccc3)c3ccccc3)N2C1=O', 51.2);

The origin of these recorded values is PubChem BioAssay AID1963444.
